FYI, the data here is from ChEMBL document CHEMBL1821607.

target: D(1A) dopamine receptor (Homo sapiens, UniProt P21728)
Sequence (P21728 whole entry): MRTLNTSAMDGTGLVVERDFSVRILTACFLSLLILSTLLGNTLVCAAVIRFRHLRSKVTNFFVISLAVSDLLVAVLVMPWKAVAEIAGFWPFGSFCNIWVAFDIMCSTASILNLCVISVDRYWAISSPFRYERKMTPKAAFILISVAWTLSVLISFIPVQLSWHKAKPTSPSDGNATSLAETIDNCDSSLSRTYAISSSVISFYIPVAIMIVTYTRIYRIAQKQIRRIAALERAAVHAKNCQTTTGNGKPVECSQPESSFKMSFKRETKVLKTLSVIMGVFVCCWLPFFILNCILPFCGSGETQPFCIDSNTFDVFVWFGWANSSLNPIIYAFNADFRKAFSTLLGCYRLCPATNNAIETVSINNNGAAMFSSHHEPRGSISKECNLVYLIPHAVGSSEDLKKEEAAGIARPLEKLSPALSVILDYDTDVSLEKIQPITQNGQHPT
assay-method-text: Inhibition of D1 dopamine receptor by NIMH PDSP
readout-type: Ki

Which Ki value is on record for `Fc1cccc(CN2C3CC4CC(C3)CC2C4)c1` ? > 10 µM
